# target: rat liver HMG-CoA reductase (Rattus norvegicus)
# Sequence (P51639 1-887): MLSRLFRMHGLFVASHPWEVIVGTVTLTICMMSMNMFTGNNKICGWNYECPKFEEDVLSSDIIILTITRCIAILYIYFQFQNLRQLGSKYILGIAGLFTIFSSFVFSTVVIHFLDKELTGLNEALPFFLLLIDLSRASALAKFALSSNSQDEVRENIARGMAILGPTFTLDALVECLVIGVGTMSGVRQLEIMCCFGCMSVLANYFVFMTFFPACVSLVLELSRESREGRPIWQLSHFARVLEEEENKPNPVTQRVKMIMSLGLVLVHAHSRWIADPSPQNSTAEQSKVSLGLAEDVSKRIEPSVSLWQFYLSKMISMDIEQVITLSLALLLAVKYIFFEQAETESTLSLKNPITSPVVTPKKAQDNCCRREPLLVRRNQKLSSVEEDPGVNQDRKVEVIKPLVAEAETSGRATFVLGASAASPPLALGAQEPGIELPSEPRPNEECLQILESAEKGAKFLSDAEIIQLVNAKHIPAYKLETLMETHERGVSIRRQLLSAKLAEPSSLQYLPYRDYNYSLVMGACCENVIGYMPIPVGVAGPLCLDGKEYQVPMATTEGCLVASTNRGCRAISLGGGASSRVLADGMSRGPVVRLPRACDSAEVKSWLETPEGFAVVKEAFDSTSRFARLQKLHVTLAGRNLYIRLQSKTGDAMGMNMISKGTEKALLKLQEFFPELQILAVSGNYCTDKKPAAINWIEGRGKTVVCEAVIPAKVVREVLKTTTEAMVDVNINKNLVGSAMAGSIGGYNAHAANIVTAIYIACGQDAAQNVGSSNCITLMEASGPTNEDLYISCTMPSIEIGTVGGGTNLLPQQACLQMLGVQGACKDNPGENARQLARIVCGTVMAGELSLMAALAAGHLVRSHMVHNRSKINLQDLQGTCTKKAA
# method: Test A: In Vitro Inhibition of Microsomal HMG-CoA Reductase
# measurement.parameters: intact, fully activated microsomal form of rat liver enzyme; [3-14C]-HMG-CoA 0.33 mM; NADPH 3.0 mM; pH 7.2; at least 4 dilutions in duplicate
Structures can show the parent of a compound that is named as a salt.
Catalogue of IC50 values

compound: O=C(O)C[C@H](O)C[C@H](O)C=CC(=C(c1ccc(F)cc1)c1ccc(F)cc1)C(F)(F)F (relative stereo) [Example 73, sodium salt]
IC50 [nM]: 1580

compound: O=C(O)C[C@H](O)C[C@H](O)C=CC(=C(c1ccc(F)cc1)c1ccc(F)cc1)C1CC1 (relative stereo) [Example 51, sodium salt]
IC50 [nM]: 450

compound: CC(C)(C)C(C=C[C@@H](O)C[C@@H](O)CC(=O)O)=C(c1ccc(F)cc1)c1ccc(F)cc1 (relative stereo) [Example 42, sodium salt]
IC50 [nM]: 500

compound: CC(C)C(C=C[C@@H](O)C[C@@H](O)CC(=O)O)=C(c1ccc(F)cc1)c1ccc(F)cc1 (relative stereo) [Example 8, sodium salt]
IC50 [nM]: 265

compound: CCC(C=C[C@@H](O)C[C@@H](O)CC(=O)O)=C(c1ccc(F)cc1)c1ccc(F)cc1 (relative stereo) [Example 59, sodium salt]
IC50 [nM]: 410
